# TESTED_TARGET: T1, pig TF-His (pig (Sus scrofa))
# T1 construct: also called pig TF ECD-His; pTF
# T1 chain: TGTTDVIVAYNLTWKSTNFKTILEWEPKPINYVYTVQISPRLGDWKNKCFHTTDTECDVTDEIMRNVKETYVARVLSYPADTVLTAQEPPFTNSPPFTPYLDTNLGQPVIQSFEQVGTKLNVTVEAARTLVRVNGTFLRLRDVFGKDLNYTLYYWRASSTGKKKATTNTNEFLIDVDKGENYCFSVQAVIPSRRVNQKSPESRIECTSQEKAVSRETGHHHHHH
# ASSAY_TEXT: SPR (Biacore), antibody captured by anti-human IgG on CM5 chip, pig TF-His in solution, 1:1 model
Documented Kd across a set of binders

{"columns": ["BINDER", "Kd"],
 "data": [
  ["43D8 (antibody, human IgG1, kappa, V domains shown, Human IgG1; also called antibody 43D8; 43D8 mAb) VH: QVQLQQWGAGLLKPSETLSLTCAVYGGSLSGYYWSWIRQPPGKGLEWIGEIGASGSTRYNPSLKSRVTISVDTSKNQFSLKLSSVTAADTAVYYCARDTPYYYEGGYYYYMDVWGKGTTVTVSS VL: EIVLTQSPGTLSLSPGERATLSCRASQSVSSSFLAWYQQKPGQAPRLLIYGAYSRATGIPDRFSGSGSGTDFTLTISRLEPEDFAVYYCQQAGVVPYTFGGGTKVEIKR", "19.2 nM"],
  ["25A5-T (antibody, human IgG1, kappa, V domains shown, Human IgG1) VH: QVQLVQSGAEVKKPGASVKVSCKASGYTFDAYGISWVRQAPGQGLEWMGWIAPYSGNTNYAQKLQGRVTMTTDTSTSTAYMELRSLRSDDTAVYYCARDAGTYSPFGYGMDVWGQGTTVTVSS VL: DIQMTQSPSTLSASVGDRVTITCRASESISNWLAWYQQKPGKAPKLLIYKAYSLEYGVPSRFSGSGSGTEFTLTISSLQPDDFATYYCQQFQKLPPFTFGGGTKVEIKR", "4.5 nM"],
  ["43D7 (antibody, human IgG1, kappa, V domains shown, Human IgG1; also called antibody 43D7) VH: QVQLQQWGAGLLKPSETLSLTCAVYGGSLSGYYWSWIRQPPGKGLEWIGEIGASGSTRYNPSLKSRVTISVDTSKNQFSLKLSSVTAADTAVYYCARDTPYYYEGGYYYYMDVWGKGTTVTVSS VL: EIVLTQSPGTLSLSPGERATLSCRASDSVDSSYLAWYQQKPGQAPRLLIYGAFSRANGIPDRFSGSGSGTDFTLTISRLEPEDFAVYYCQQAGVVPYTFGGGTKVEIKR", "8.8 nM"]
]}
